Cited source for all entries: patent US8999957B2

Measured on: fully phosphorylated, mouse aERK2 enzyme (Mus musculus (Mouse), UniProt P63085)
Sequence (P63085 whole entry): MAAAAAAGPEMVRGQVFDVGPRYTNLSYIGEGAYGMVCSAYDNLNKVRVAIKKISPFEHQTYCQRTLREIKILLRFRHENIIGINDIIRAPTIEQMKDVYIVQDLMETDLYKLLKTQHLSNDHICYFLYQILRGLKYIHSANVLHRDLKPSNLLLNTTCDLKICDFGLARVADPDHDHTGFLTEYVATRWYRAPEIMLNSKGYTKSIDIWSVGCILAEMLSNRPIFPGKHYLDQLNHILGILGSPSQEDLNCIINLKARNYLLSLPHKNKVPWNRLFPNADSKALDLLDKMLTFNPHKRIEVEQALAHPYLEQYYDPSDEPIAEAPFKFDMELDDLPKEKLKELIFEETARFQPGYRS
Run description: Active ERK2 (aERK) IMAP-FP assay, condition 2
Format: biochemical
Experimental setup: active ERK2; read-out: aErk2 Ic50
pIC50: −log10 of the molar value.
The entries below are paired with their reported pIC50.
Property measured: pIC50

Smiles	Property measured	Obs value
COc1cccc(F)c1CN1C[C@H](NC(=O)c2ccc3[nH]nc(-c4ccnc(C)c4)c3c2)CC[C@H]1C(=O)N(C)C	pIC50	7.42
COc1cccc(F)c1CN1C[C@H](NC(=O)c2ccc3[nH]nc(-c4ccnc(C)c4)c3c2)CC[C@H]1C(=O)NCC(F)(F)F	pIC50	7.33
Cc1cc(-c2n[nH]c3ccc(C(=O)N[C@@H]4CC[C@@H](C(=O)N5CC(F)(F)C5)N(Cc5ccccc5F)C4)cc23)ccn1	pIC50	7.25
COc1cccc(F)c1CN1C[C@H](NC(=O)c2ccc3[nH]nc(-c4ccnc(C)c4)c3c2)CC[C@H]1C(=O)N1CCCO1	pIC50	7.98
CCCN(CCC)C(=O)[C@@H]1CC[C@@H](NC(=O)c2ccc3[nH]nc(-c4ccnc(C)c4)c3c2)CN1Cc1c(F)cccc1OC	pIC50	6.85
CCN(CC)C(=O)[C@@H]1CC[C@@H](NC(=O)c2ccc3[nH]nc(-c4ccc5nc(C)sc5c4)c3c2)CN1Cc1c(F)cccc1OC	pIC50	7.48
CCN(C)C(=O)[C@@H]1CC[C@@H](NC(=O)c2ccc3[nH]nc(-c4ccnc(C)c4)c3c2)CN1Cc1c(F)cccc1OC	pIC50	7.66

---

// fully phosphorylated, active Mouse ERK2 protein (Mus musculus (Mouse)) IC50 records

Molecule	Reading unit	IC50
COc1cccc(CN2CCC[C@@H](NC(=O)c3ccc4[nH]nc(-c5ccnc(C)c5)c4c3)C2)n1	nM	220
CN(C)c1ccc(CN2CCC[C@@H](NC(=O)c3ccc4[nH]nc(-c5ccc6c(c5)CCO6)c4c3)C2)cc1	nM	1000
Cn1cc2cc(-c3n[nH]c4ccc(C(=O)N[C@H]5C[C@@H](C(F)(F)F)CN(Cc6c(F)cccc6F)C5)cc34)ccc2n1	nM	375
Cc1cc(-c2n[nH]c3ccc(C(=O)N[C@@H]4CCCN(CC(F)(F)c5ccccc5F)C4)cc23)ccn1	nM	170
COc1cccc(F)c1CN1C[C@@H](C)C[C@@H](NC(=O)c2ccc3[nH]nc(-c4ccc5nonc5c4)c3c2)C1	nM	128
O=C(NC1CCCN(Cc2ccccc2F)C1)c1ccc2[nH]nc(-c3ccncc3)c2c1 (centres unmarked)	nM	28.1
Cc1cc(-c2n[nH]c3ccc(C(=O)N[C@@H]4CCCN(Cc5ncccc5F)C4)cc23)ccn1	nM	234
COc1cccc(F)c1CN1CCC[C@@H](NC(=O)c2ccc3[nH]nc(-c4ccc5nc(C)oc5c4)c3c2)C1	nM	16.4

---

Measured on: fully phosphorylated, active Mouse ERK2 protein (Mus musculus (Mouse), UniProt P63085)
Sequence (P63085 whole entry): as above
Run description: Active ERK2 (aERK) IMAP assay, condition 1
Format: biochemical
Experimental setup: aERK assay condition 1, 30 μM ATP
Property measured: log10 of IC50 (log10 of the value in nM)

Compound	Measured on	Obs value
COCCOc1cccc(F)c1CN1CCC[C@@H](NC(=O)c2ccc3[nH]nc(-c4ccncc4)c3c2)C1	fully phosphorylated, active Mouse ERK2 protein (Mus musculus (Mouse), UniProt P63085)	1.23
O=C(NC1CCCCN(CCCc2ccccc2)C1)c1ccc2[nH]nc(-c3ccncc3)c2c1 (centres unmarked)	fully phosphorylated, active Mouse ERK2 protein (Mus musculus (Mouse), UniProt P63085)	1.86
O=C(NC1CCCCN(CCc2ccc(F)cc2)C1)c1ccc2[nH]nc(-c3ccncc3)c2c1 (centres unmarked)	fully phosphorylated, active Mouse ERK2 protein (Mus musculus (Mouse), UniProt P63085)	1.99
Cc1cc(-c2n[nH]c3ccc(C(=O)NC4CCCN(Cc5ncccn5)C4)cc23)ccn1 (centres unmarked)	fully phosphorylated, active Mouse ERK2 protein (Mus musculus (Mouse), UniProt P63085)	2.97
CN1CC(Cc2c(F)cccc2F)CC(NC(=O)c2ccc3[nH]nc(-c4nc5ccccc5s4)c3c2)C1 (centres unmarked)	fully phosphorylated, active Mouse ERK2 protein (Mus musculus (Mouse), UniProt P63085)	1.35

---

So I've got IC50 readings for fully phosphorylated, active Mouse ERK2 protein (Mus musculus (Mouse)), take a look.
Property measured: IC50 (nM)

Compound	Obs value
Cc1cc(-c2n[nH]c3ccc(C(=O)N[C@@H]4CCCN(Cc5c(C)cccc5C)C4)cc23)ccn1	89
Cc1cc(-c2n[nH]c3ccc(C(=O)N[C@@H]4CCCN(CCc5ccccc5F)C4)cc23)ccn1	98.8
COc1cccc(F)c1CN1CCC[C@@H](NC(=O)c2ccc3[nH]nc(-c4ccc(N)c(OC(C)=O)c4)c3c2)C1	483
O=C(N[C@@H]1CCCN(Cc2ccccc2C(F)(F)F)C1)c1ccc2[nH]nc(-c3ccc4c(c3)CCO4)c2c1	1000
CCc1cc(-c2n[nH]c3ccc(C(=O)N[C@@H]4CCCN(Cc5ccccc5F)C4)cc23)ccn1	19.8
COc1cccc(F)c1CN1CCC[C@@H](NC(=O)c2ccc3[nH]nc(-c4ccc5cn[nH]c5c4)c3c2)C1	163
Cc1cc(-c2n[nH]c3ccc(C(=O)N[C@@H]4CCCN(Cc5cc(F)c(Cl)cc5Cl)C4)cc23)ccn1	660
CC(C)Oc1ccc(-c2n[nH]c3ccc(C(=O)NC4CCCN(Cc5ccccc5F)C4)cc23)cn1 (centres unmarked)	769

---

Measured on: fully phosphorylated, active Mouse ERK2 protein (Mus musculus (Mouse), UniProt P63085)
Run description: Active ERK2 (aERK) IMAP assay, condition 1
Assay type: biochemical
Experimental setup: aERK assay condition 1, 30 μM ATP

Compound	IC50 (nM)
COc1cccc(F)c1CN1CC(NC(=O)c2ccc3[nH]nc(-c4ccc5nccn5c4)c3c2)CC(C(=O)O)C1 (stereo not drawn)	64.7
CC(C)Oc1ccc(-c2n[nH]c3ccc(C(=O)N[C@@H]4CCCN(Cc5ccccc5F)C4)cc23)cc1	275
Cc1cc(-c2n[nH]c3ccc(C(=O)N[C@@H]4CCCN(Cc5ccccc5Cl)C4)cc23)ccn1	28.1

---

The entries below are paired with their reported log10 IC50.
Measured on: fully phosphorylated, mouse aERK2 enzyme (Mus musculus (Mouse), UniProt P63085)
Run description: Active ERK2 (aERK) IMAP-FP assay, condition 2
Assay type: biochemical
Experimental setup: active ERK2; read-out: aErk2 Ic50
Property measured: log10 IC50 (log10 of the value in nM)

Smiles	Measured on	Obs value
[2H]C([2H])([2H])Oc1cccc(F)c1CN1C[C@H](NC(=O)c2ccc3[nH]nc(-c4ccnc(C)c4)c3c2)CC[C@H]1C(=O)N1CCN(C(=O)OC(C)(C)C)CC1	fully phosphorylated, mouse aERK2 enzyme (Mus musculus (Mouse), UniProt P63085)	1.09
Cc1cc(-c2n[nH]c3ccc(C(=O)N[C@@H]4CC[C@@H](C(=O)N5CC(F)(F)C5)N(Cc5c(F)cccc5F)C4)cc23)ccn1	fully phosphorylated, mouse aERK2 enzyme (Mus musculus (Mouse), UniProt P63085)	1.98
COc1cccc(F)c1CN1C[C@H](NC(=O)c2ccc3[nH]nc(-c4ccnc(C)c4)c3c2)CC[C@H]1C(=O)NCCNC(=O)OC(C)(C)C	fully phosphorylated, mouse aERK2 enzyme (Mus musculus (Mouse), UniProt P63085)	1.28
COc1cccc(F)c1CN1C[C@H](NC(=O)c2ccc3[nH]nc(-c4ccnc(C)c4)c3c2)CC[C@H]1C(=O)N1CCN(C(=O)OC2(C)CC2)CC1	fully phosphorylated, mouse aERK2 enzyme (Mus musculus (Mouse), UniProt P63085)	1.34
COc1cccc(F)c1CN1C[C@H](NC(=O)c2ccc3[nH]nc(-c4ccc5nc(C)sc5c4)c3c2)CC[C@H]1C(N)=O	fully phosphorylated, mouse aERK2 enzyme (Mus musculus (Mouse), UniProt P63085)	0.56
CCCN(C)C(=O)[C@@H]1CC[C@@H](NC(=O)c2ccc3[nH]nc(-c4ccnc(C)c4)c3c2)CN1Cc1c(F)cccc1OC	fully phosphorylated, mouse aERK2 enzyme (Mus musculus (Mouse), UniProt P63085)	1.76
COc1cccc(F)c1CN1C[C@H](NC(=O)c2ccc3[nH]nc(-c4ccnc(C)c4)c3c2)CC[C@H]1C(=O)NC(C)C	fully phosphorylated, mouse aERK2 enzyme (Mus musculus (Mouse), UniProt P63085)	1.67
COc1cccc(F)c1CN1C[C@H](NC(=O)c2ccc3[nH]nc(-c4ccnc(C)c4)c3c2)CC[C@H]1C(=O)N1CCC(Cl)CC1	fully phosphorylated, mouse aERK2 enzyme (Mus musculus (Mouse), UniProt P63085)	1.68
Cc1cc(-c2n[nH]c3ccc(C(=O)N[C@@H]4CC[C@@H](C(=O)N(C)C)N(Cc5c(F)cccc5F)C4)cc23)ccn1	fully phosphorylated, mouse aERK2 enzyme (Mus musculus (Mouse), UniProt P63085)	1.87
COc1cccc(F)c1CN1C[C@H](NC(=O)c2ccc3[nH]nc(-c4ccnnc4)c3c2)CC[C@H]1C(=O)N1CC(F)(F)C1	fully phosphorylated, mouse aERK2 enzyme (Mus musculus (Mouse), UniProt P63085)	1.79
COc1cccc(F)c1CN1C[C@H](NC(=O)c2ccc3[nH]nc(-c4ccnc(C)c4)c3c2)CC[C@H]1C(=O)N1CCN(C(=O)OC(C)C)CC1	fully phosphorylated, mouse aERK2 enzyme (Mus musculus (Mouse), UniProt P63085)	1.28
Cc1cc(-c2n[nH]c3ccc(C(=O)N[C@@H]4CC[C@@H](C(=O)Nc5nccs5)N(CCc5ccccc5)C4)cc23)ccn1	fully phosphorylated, mouse aERK2 enzyme (Mus musculus (Mouse), UniProt P63085)	2.12
O=C(N[C@@H]1CC[C@@H](C(=O)NCc2ccccc2)N(Cc2ccccc2)C1)c1ccc2[nH]nc(-c3ccncc3)c2c1	fully phosphorylated, mouse aERK2 enzyme (Mus musculus (Mouse), UniProt P63085)	1.68
Cc1cc(-c2n[nH]c3ccc(C(=O)N[C@@H]4CC[C@@H](C(=O)N5CC(F)(F)C5)N(Cc5cccs5)C4)cc23)ccn1	fully phosphorylated, mouse aERK2 enzyme (Mus musculus (Mouse), UniProt P63085)	1.41
COc1cccc(F)c1CN1C[C@H](NC(=O)c2ccc3[nH]nc(-c4ccncc4)c3c2)CC[C@H]1C(=O)N1CCCCC1	fully phosphorylated, mouse aERK2 enzyme (Mus musculus (Mouse), UniProt P63085)	1.78
COc1cccc(F)c1CN1C[C@H](NC(=O)c2ccc3[nH]nc(-c4ccnc(C)c4)c3c2)CC[C@H]1C(=O)NCCF	fully phosphorylated, mouse aERK2 enzyme (Mus musculus (Mouse), UniProt P63085)	0.95
[2H]C([2H])([2H])Oc1cccc(F)c1CN1C[C@H](NC(=O)c2ccc3[nH]nc(-c4ccc5nc(C)sc5c4)c3c2)CC[C@H]1C(N)=O	fully phosphorylated, mouse aERK2 enzyme (Mus musculus (Mouse), UniProt P63085)	0.53
COc1cccc(F)c1CN1C[C@H](NC(=O)c2ccc3[nH]nc(-c4ccnc(C)c4)c3c2)CC[C@H]1C(=O)NOC(C)(C)C	fully phosphorylated, mouse aERK2 enzyme (Mus musculus (Mouse), UniProt P63085)	1.42
